assay-details: Oral bioavailability in Sprague-Dawley rat at 10 mg/kg
Type: ADME, organism-based
assay-conditions: in vivo
parameter: bioavailability (%)

C[C@@H](NC(=O)C1(NC(=O)c2cncc(Br)c2)CC1)c1ccc(-n2nc(Cl)c3ccccc32)cc1F; 24
COc1cc(C(=O)NC2(C(=O)N[C@H](C)c3ccc(-n4nc(Cl)c5ccccc54)cc3F)CC2)on1; 49

(1) COc1cncc(C(=O)NC2(C(=O)N[C@H](C)c3ccc(-n4nc(Cl)c5ccccc54)cc3F)CC2)c1
(2) COc1ncc(C(=O)NC2(C(=O)N[C@H](C)c3ccc(-n4nc(Cl)c5ccccc54)cc3F)CC2)s1
[ask] Quick one: lower bioavailability, 1 or 2 ? // return label of chosen record
[reply] 1
(1: 6%, 2: 13%)

====

assay-details: Half life in Sprague-Dawley rat at 10 mg/kg, po or 2 mg/kg, iv
Assay type: ADME, organism-based
assay-conditions: in vivo
parameter: half-life (h)

C[C@@H](NC(=O)C1(NC(=O)c2cncc(Br)c2)CC1)c1ccc(-n2nc(Cl)c3ccccc32)cc1F; 3.1

(1) C[C@@H](NC(=O)C1(NC(=O)c2cncc(Cl)n2)CC1)c1ccc(-n2nc(Cl)c3ccccc32)cc1F
(2) COc1cncc(C(=O)NC2(C(=O)N[C@H](C)c3ccc(-n4nc(Cl)c5ccccc54)cc3F)CC2)c1
(3) COc1cc(C(=O)NC2(C(=O)N[C@H](C)c3ccc(-n4nc(Cl)c5ccccc54)cc3F)CC2)on1
(4) COc1ncc(C(=O)NC2(C(=O)N[C@H](C)c3ccc(-n4nc(Cl)c5ccccc54)cc3F)CC2)s1
[ask] Rank by half-life (largest to smallest). Answer format: list of labels, ordered as asked.
[reply] 4, 3, 1, 2
(4: 8.3 h, 3: 3.1 h, 1: 1.6 h, 2: 0.7 h)

====

assay-details: Apparent passive permeability coefficient by cell based assay
Assay type: ADME
parameter: Papp (×10⁻⁶ cm/s)

Reference set (6 entries):
COc1cc(C(=O)NC2(C(=O)N[C@H](C)c3ccc(-n4nc(Cl)c5ccccc54)cc3F)CC2)on1; 26
COc1ncc(C(=O)NC2(C(=O)N[C@H](C)c3ccc(-n4nc(Cl)c5ccccc54)cc3F)CC2)s1; 14
COc1cncc(C(=O)NC2(C(=O)N[C@H](C)c3ccc(-n4nc(Cl)c5ccccc54)cc3F)CC2)c1; 21
C[C@@H](NC(=O)C1(NC(=O)c2cn[nH]c2)CC1)c1ccc(-n2nc(Cl)c3ccccc32)cc1F; 19
C[C@@H](NC(=O)C1(NC(=O)c2cncc(Br)c2)CC1)c1ccc(-n2nc(Cl)c3ccccc32)cc1F; 13
C[C@@H](NC(=O)C1(NC(=O)c2cncs2)CC1)c1ccc(-n2nc(Cl)c3ccccc32)cc1F; 19

(a) C[C@@H](NC(=O)C1(NC(=O)c2cncc(Cl)c2)CC1)c1ccc(-n2nc(Cl)c3ccccc32)cc1F
(b) C[C@@H](NC(=O)C1(NC(=O)c2cncc(F)c2)CC1)c1ccc(-n2nc(Cl)c3ccccc32)cc1F
[ask] Which numeric Papp is bigger, that of a or that of b ? Pick one and reply with its label.
[reply] b

====

subject-of-test: ATP-dependent translocase ABCB1 (Homo sapiens)
Sequence (P08183 whole entry): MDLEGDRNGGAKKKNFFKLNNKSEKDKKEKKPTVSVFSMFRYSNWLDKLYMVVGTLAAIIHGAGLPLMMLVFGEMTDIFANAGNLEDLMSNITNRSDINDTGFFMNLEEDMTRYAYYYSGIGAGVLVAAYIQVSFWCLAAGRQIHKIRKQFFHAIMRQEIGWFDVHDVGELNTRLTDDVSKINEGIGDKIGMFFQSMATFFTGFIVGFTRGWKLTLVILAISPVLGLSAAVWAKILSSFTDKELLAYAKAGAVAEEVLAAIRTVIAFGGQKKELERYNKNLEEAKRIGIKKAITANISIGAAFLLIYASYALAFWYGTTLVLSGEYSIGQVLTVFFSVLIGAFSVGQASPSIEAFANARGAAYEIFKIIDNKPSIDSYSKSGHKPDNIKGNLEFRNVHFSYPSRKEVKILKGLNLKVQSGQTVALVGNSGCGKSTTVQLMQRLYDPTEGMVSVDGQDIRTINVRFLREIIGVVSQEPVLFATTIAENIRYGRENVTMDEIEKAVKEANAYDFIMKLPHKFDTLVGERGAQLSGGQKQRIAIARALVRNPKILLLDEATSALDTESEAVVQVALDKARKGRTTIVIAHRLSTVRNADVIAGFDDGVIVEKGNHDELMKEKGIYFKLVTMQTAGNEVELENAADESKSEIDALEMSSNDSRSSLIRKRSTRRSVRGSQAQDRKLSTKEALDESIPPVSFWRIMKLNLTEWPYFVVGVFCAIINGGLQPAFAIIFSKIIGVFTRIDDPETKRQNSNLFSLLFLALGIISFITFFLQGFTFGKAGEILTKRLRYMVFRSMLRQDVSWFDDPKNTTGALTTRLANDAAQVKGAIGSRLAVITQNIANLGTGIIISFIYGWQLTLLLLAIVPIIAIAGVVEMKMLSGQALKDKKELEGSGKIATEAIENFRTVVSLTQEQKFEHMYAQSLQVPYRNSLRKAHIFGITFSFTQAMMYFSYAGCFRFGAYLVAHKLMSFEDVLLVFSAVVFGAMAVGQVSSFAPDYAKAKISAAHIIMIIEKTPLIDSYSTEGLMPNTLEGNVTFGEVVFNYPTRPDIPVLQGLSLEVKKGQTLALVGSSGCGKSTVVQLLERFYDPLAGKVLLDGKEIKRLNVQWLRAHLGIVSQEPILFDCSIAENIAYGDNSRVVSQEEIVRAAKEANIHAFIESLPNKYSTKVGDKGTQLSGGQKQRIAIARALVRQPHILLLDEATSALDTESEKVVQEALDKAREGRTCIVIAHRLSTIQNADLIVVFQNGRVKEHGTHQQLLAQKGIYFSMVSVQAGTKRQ
assay-details: Drug transport assessed as MDR1 -mediated transcellular transport ratio by P-gp transport assay
Format: ADME
parameter: Ratio

Solved entries (count: 5):
C[C@@H](NC(=O)C1(NC(=O)c2cncnc2)CC1)c1ccc(-n2nc(Cl)c3ccccc32)cc1F; 5.9
C[C@@H](NC(=O)C1(NC(=O)c2ccnnc2)CC1)c1ccc(-n2nc(Cl)c3ccccc32)cc1F; 29.4
Cc1nnsc1C(=O)NC1(C(=O)N[C@H](C)c2ccc(-n3nc(Cl)c4ccccc43)cc2F)CC1; 2.3
C[C@@H](NC(=O)C1(NC(=O)c2cnccn2)CC1)c1ccc(-n2nc(Cl)c3ccccc32)cc1F; 1.6
C[C@@H](NC(=O)C1(NC(=O)c2cncc(Br)c2)CC1)c1ccc(-n2nc(Cl)c3ccccc32)cc1F; 2.3

(P) COc1ncc(C(=O)NC2(C(=O)N[C@H](C)c3ccc(-n4nc(Cl)c5ccccc54)cc3F)CC2)s1
(Q) C[C@@H](NC(=O)C1(NC(=O)c2cncc(O)c2)CC1)c1ccc(-n2nc(Cl)c3ccccc32)cc1F
[ask] Form field 'greater Ratio' accepts P or Q ; which applies? Your answer should be the label attached to the chosen record.
[reply] Q
